- System: Escherichia coli
- Assay Procedure: Antimicrobial activity against community-acquired Escherichia coli expressing extended spectrum beta-lactamase obtained from patient with intra-abdominal infection assessed as susceptible isolates by EUCAST method
- Type: functional

Molecule	Activity / %
C[C@@H](O)[C@H]1C(=O)N2C(C(=O)O)=C(SCCNC=N)C[C@H]12 [IMIPENEM ANHYDROUS]	100
C[C@H]1COc2c(N3CCN(C)CC3)c(F)cc3c(=O)c(C(=O)O)cn1c23.C[C@H]1COc2c(N3CCN(C)CC3)c(F)cc3c(=O)c(C(=O)O)cn1c23.O	32.4
NCC[C@H](O)C(=O)N[C@@H]1C[C@H](N)[C@@H](O[C@H]2O[C@H](CN)[C@@H](O)[C@H](O)[C@H]2O)[C@H](O)[C@H]1O[C@H]1O[C@H](CO)[C@@H](O)[C@H](N)[C@H]1O	59.5
O=C(O)c1cn(C2CC2)c2cc(N3CCNCC3)c(F)cc2c1=O	29.7
CO/N=C(\C(=O)N[C@@H]1C(=O)N2C(C(=O)O)=C(COC(C)=O)CS[C@H]12)c1csc(N)n1	0
CO/N=C(\C(=O)N[C@@H]1C(=O)N2C(C(=O)O)=C(CSc3nc(=O)c(O)nn3C)CS[C@H]12)c1csc(N)n1	2.7

###

- Test system: Klebsiella pneumoniae
- Assay Procedure: Antimicrobial activity against community-acquired Klebsiella pneumoniae obtained from patient with intra-abdominal infection assessed as susceptible isolates by EUCAST method
- Format: functional
Each item that follows carries a reported Activity.

Compound	Study System	Unit Tag	Activity
NCC[C@H](O)C(=O)N[C@@H]1C[C@H](N)[C@@H](O[C@H]2O[C@H](CN)[C@@H](O)[C@H](O)[C@H]2O)[C@H](O)[C@H]1O[C@H]1O[C@H](CO)[C@@H](O)[C@H](N)[C@H]1O	Klebsiella pneumoniae	%	98.6
CO/N=C(\C(=O)N[C@@H]1C(=O)N2C(C(=O)[O-])=C(C[N+]3(C)CCCC3)CS[C@H]12)c1csc(N)n1 [CEFEPIME]	Klebsiella pneumoniae	%	98.6
C[C@@H](O)[C@H]1C(=O)N2C(C(=O)O)=C(S[C@@H]3CN[C@H](C(=O)Nc4cccc(C(=O)O)c4)C3)[C@H](C)[C@H]12	Klebsiella pneumoniae	%	100
C[C@H]1COc2c(N3CCN(C)CC3)c(F)cc3c(=O)c(C(=O)O)cn1c23.C[C@H]1COc2c(N3CCN(C)CC3)c(F)cc3c(=O)c(C(=O)O)cn1c23.O	Klebsiella pneumoniae	%	97.2
CC(C)(O/N=C(\C(=O)N[C@@H]1C(=O)N2C(C(=O)[O-])=C(C[n+]3ccccc3)CS[C@H]12)c1csc(N)n1)C(=O)O	Klebsiella pneumoniae	%	98.6
O=C(O)c1cn(C2CC2)c2cc(N3CCNCC3)c(F)cc2c1=O	Klebsiella pneumoniae	%	94.4

###

- System: Klebsiella pneumoniae
- Assay Procedure: Antimicrobial activity against community-acquired Klebsiella pneumoniae obtained from patient with intra-abdominal infection assessed as susceptible isolates by EUCAST method
- Format: functional

Compound	Activity / %
CO/N=C(\C(=O)N[C@@H]1C(=O)N2C(C(=O)O)=C(COC(C)=O)CS[C@H]12)c1csc(N)n1	100
CO/N=C(\C(=O)N[C@@H]1C(=O)N2C(C(=O)O)=C(CSc3nc(=O)c(O)nn3C)CS[C@H]12)c1csc(N)n1	98.6
C[C@@H](O)[C@H]1C(=O)N2C(C(=O)O)=C(SCCNC=N)C[C@H]12 [IMIPENEM ANHYDROUS]	100

###

- Tested on: Escherichia coli
- Assay Procedure: Antimicrobial activity against community-acquired Escherichia coli expressing extended spectrum beta-lactamase obtained from patient with intra-abdominal infection assessed as susceptible isolates by EUCAST method
- Type: functional
Listed here: items and their measured Activity.

Compound	Activity
CO/N=C(\C(=O)N[C@@H]1C(=O)N2C(C(=O)[O-])=C(C[N+]3(C)CCCC3)CS[C@H]12)c1csc(N)n1 [CEFEPIME]	8.1%
CC(C)(O/N=C(\C(=O)N[C@@H]1C(=O)N2C(C(=O)[O-])=C(C[n+]3ccccc3)CS[C@H]12)c1csc(N)n1)C(=O)O [CEFTAZIDIME]	8.1%
C[C@@H](O)[C@H]1C(=O)N2C(C(=O)O)=C(S[C@@H]3CN[C@H](C(=O)Nc4cccc(C(=O)O)c4)C3)[C@H](C)[C@H]12 [ERTAPENEM]	100%

###

- Test system: Klebsiella pneumoniae
- Assay Procedure: Antimicrobial activity against hospital-acquired Klebsiella pneumoniae obtained from patient with intra-abdominal infection assessed as susceptible isolates by EUCAST method
- Type: functional
Recorded measurements of Activity, one per entry

Compound	Activity
C[C@@H](O)[C@H]1C(=O)N2C(C(=O)O)=C(SCCNC=N)C[C@H]12 [IMIPENEM ANHYDROUS]	94.9%
O=C(O)c1cn(C2CC2)c2cc(N3CCNCC3)c(F)cc2c1=O	79.2%
C[C@@H](O)[C@H]1C(=O)N2C(C(=O)O)=C(S[C@@H]3CN[C@H](C(=O)Nc4cccc(C(=O)O)c4)C3)[C@H](C)[C@H]12	93.3%
CO/N=C(\C(=O)N[C@@H]1C(=O)N2C(C(=O)O)=C(CSc3nc(=O)c(O)nn3C)CS[C@H]12)c1csc(N)n1	90.5%
CC(C)(O/N=C(\C(=O)N[C@@H]1C(=O)N2C(C(=O)[O-])=C(C[n+]3ccccc3)CS[C@H]12)c1csc(N)n1)C(=O)O	91%
C[C@H]1COc2c(N3CCN(C)CC3)c(F)cc3c(=O)c(C(=O)O)cn1c23.C[C@H]1COc2c(N3CCN(C)CC3)c(F)cc3c(=O)c(C(=O)O)cn1c23.O	83.2%

###

- Tested on: Escherichia coli
- Assay Procedure: Antimicrobial activity against hospital-acquired Escherichia coli obtained from patient with intra-abdominal infection assessed as susceptible isolates by EUCAST method
- Assay type: functional
Some compounds, each annotated with its measured Activity.

Compound	Activity / %
CO/N=C(\C(=O)N[C@@H]1C(=O)N2C(C(=O)O)=C(CSc3nc(=O)c(O)nn3C)CS[C@H]12)c1csc(N)n1 [CEFTRIAXONE]	95.8
CO/N=C(\C(=O)N[C@@H]1C(=O)N2C(C(=O)O)=C(COC(C)=O)CS[C@H]12)c1csc(N)n1 [CEFOTAXIME]	95.8
NCC[C@H](O)C(=O)N[C@@H]1C[C@H](N)[C@@H](O[C@H]2O[C@H](CN)[C@@H](O)[C@H](O)[C@H]2O)[C@H](O)[C@H]1O[C@H]1O[C@H](CO)[C@@H](O)[C@H](N)[C@H]1O [AMIKACIN]	97
C[C@@H](O)[C@H]1C(=O)N2C(C(=O)O)=C(S[C@@H]3CN[C@H](C(=O)Nc4cccc(C(=O)O)c4)C3)[C@H](C)[C@H]12 [ERTAPENEM]	98.9
CC(C)(O/N=C(\C(=O)N[C@@H]1C(=O)N2C(C(=O)[O-])=C(C[n+]3ccccc3)CS[C@H]12)c1csc(N)n1)C(=O)O [CEFTAZIDIME]	94.3
C[C@H]1COc2c(N3CCN(C)CC3)c(F)cc3c(=O)c(C(=O)O)cn1c23.C[C@H]1COc2c(N3CCN(C)CC3)c(F)cc3c(=O)c(C(=O)O)cn1c23.O [LEVOFLOXACIN]	79.8
C[C@@H](O)[C@H]1C(=O)N2C(C(=O)O)=C(SCCNC=N)C[C@H]12 [IMIPENEM ANHYDROUS]	99.6
O=C(O)c1cn(C2CC2)c2cc(N3CCNCC3)c(F)cc2c1=O [CIPROFLOXACIN]	78.3
